Data provenance: patent US7863449B2

Answer each item with its documented Emax.
target: M1 muscarinic receptor (Homo sapiens, UniProt P11229); construct: expressed in transfected cells; host or cells: CHO (M1-CHO); experiment: Functional mobilization of intracellular calcium (FLIPR), M1-CHO cells; assay type: cell-based; settings: 100% efficacy is the maximum response obtained using Carbachol as a control

Some molecules with recorded Emax:
CC(=O)N1Cc2ccccc2C2(CCN(C3CC4CCC(C3)N4C(=O)O[C@H]3CCOC3)CC2)C1 (some centres unmarked): 25 to 100%
CCOC(=O)N1CCC(CN2CCC3(CC2)CN(C(=O)C2CC2)Cc2ccccc23)CC1: 25 to 100%
CCOC(=O)N1CCC(CN2CCC3(CC2)CN(C(=O)c2nc(C)oc2C)Cc2ccccc23)CC1: 25 to 100%
CC(=O)N1Cc2ccccc2C2(CCN(Cc3cccc(F)c3)CC2)C1: < 25%
O=C1NC2(CCN(CC3CCCCC3)CC2)c2ccccc21: < 25%

Give Emax for all molecules that follow.
1. CC(=O)CN1CCC2(CC1)CN(C(C)=O)Cc1ccccc12
2. CCOC(=O)N1CCC(CN2CCC3(CC2)CN(C(=O)OC(C)C)Cc2ccccc23)CC1
3. CC(=O)N1Cc2ccccc2C2(CCN(Cc3ccc(C(C)O)cc3)CC2)C1 (centres unmarked)

Resp:
1. 25 to 100%
2. 25 to 100%
3. < 25%

###

target: M1 muscarinic receptor (Homo sapiens); construct: expressed in transfected cells; host or cells: CHO (M1-CHO); experiment: Functional mobilization of intracellular calcium (FLIPR), M1-CHO cells; format: cell-based; conditions: 100% efficacy is the maximum response obtained using Carbachol as a control
Provide the recorded Emax for the entries that follow.

Cc1cc(C(=O)N2Cc3ccccc3C3(CCN(C4CC5CCC(C4)N5C(=O)O[C@@H]4CCOC4)CC3)C2)nn1C (stereo partly shown): 25 to 100%
CCOC(=O)N1CCC(N2CCC3(CC2)CN(C(=O)NC2CCCC2)Cc2ccccc23)CC1: 25 to 100%
O=C1c2ccccc2C2(CCN([C@@H]3C[C@@H]4CC[C@@H]3C4)CC2)N1Cc1ccccc1: < 25%

Report Emax for each item below.
1. CCOC(=O)N1CCC(N2CCC3(CC2)CN(C(=O)OC2CCC2)Cc2ccccc23)CC1
2. CCOC(=O)N1C2CCC1CC(N1CCC3(CC1)CN(C(=O)c1ccno1)Cc1ccccc13)C2 (stereo not shown)
3. CC(=O)N1Cc2ccccc2C2(CCN(Cc3cc(C)ccc3F)CC2)C1
4. CCCOC(=O)N1C2CCC1CC(N1CCC3(CC1)CN(S(=O)(=O)N(C)C)Cc1ccccc13)C2 (stereo not shown)
5. CCOC(=O)N1CCC(N2CCC3(CC2)CN(C(=O)OC(C)C)Cc2ccccc23)CC1
6. CC(C)OC(=O)N1C2CCC1CC(N1CCC3(CC1)CN(C(=O)N(C)C)Cc1ccccc13)C2 (stereo not shown)
7. CC(=O)N1Cc2ccccc2C2(CCN(Cc3cccnc3)CC2)C1
8. CCOC(=O)N1CCC(N2CCC3(CC2)CN(C(=O)NC(C)C)Cc2ccccc23)CC1

Resp:
1: 25 to 100%; 2: 25 to 100%; 3: < 25%; 4: 25 to 100%; 5: 25 to 100%; 6: 25 to 100%; 7: < 25%; 8: 25 to 100%

###

biological target: M4 muscarinic receptor (Homo sapiens, UniProt P08173); construct: expressed in transfected cells; host or cells: CHO (M4-CHO); test: Functional mobilization of intracellular calcium (FLIPR), M4-CHO cells; format: cell-based; conditions: 100% efficacy is the maximum response obtained using Carbachol as a control
test_readout: Emax

Worked set:
CCOC(=O)N1C2CCC1CC(N1CCC3(CC1)CN(C(=O)C1CCCCC1)Cc1ccccc13)C2 (stereo not shown): < 25%
CCCCOC(=O)N1Cc2ccccc2C2(CCN(C3CC4CCC(C3)N4C(=O)OCC)CC2)C1 (stereo not shown): 25 to 100%
CC(=O)N1Cc2ccccc2C2(CCN(Cc3ccc(C(C)O)cc3)CC2)C1 (stereo not shown): < 25%

Req: Endpoint output: Emax of CCCS(=O)(=O)N1Cc2ccccc2C2(CCN(C3CC4CCC(C3)N4C(=O)O[C@@H]3CCOC3)CC2)C1 (stereo partly shown) . Value?
Resp: 25 to 100%

###

Molecular target: M1 muscarinic receptor (Homo sapiens, UniProt P11229)
Construct: expressed in transfected cells; host or cells: CHO (M1-CHO)
Sequence (P11229 1-460): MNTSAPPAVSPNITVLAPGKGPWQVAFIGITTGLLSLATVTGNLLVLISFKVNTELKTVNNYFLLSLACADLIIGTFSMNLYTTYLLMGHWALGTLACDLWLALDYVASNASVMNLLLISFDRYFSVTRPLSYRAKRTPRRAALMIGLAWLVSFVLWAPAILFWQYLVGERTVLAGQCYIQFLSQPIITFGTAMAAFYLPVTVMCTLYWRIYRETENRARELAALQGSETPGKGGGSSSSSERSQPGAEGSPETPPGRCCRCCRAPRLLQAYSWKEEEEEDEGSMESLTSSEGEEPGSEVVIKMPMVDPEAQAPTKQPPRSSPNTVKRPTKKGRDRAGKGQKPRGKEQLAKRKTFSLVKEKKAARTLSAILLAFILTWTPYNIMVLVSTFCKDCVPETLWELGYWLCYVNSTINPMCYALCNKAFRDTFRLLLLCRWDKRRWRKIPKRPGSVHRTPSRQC
Experiment: Functional mobilization of intracellular calcium (FLIPR), M1-CHO cells
Type: cell-based
Settings: 100% efficacy is the maximum response obtained using Carbachol as a control
Provide the recorded Emax for the entries that follow.

CCOC(=O)N1C2CCC1CC(N1CCC3(CC1)CN(C(=O)c1snnc1C)Cc1ccccc13)C2 (stereo not shown) [compound 179]: 25 to 100%
CC(=O)N1Cc2ccccc2C2(CCN(CC3CCN(C(=O)OC4CCC4)CC3)CC2)C1 [compound 291]: < 25%
CN(C)C(=O)N1Cc2ccccc2C2(CCN(C3CC4CCC(C3)N4C(=O)O[C@@H]3CCOC3)CC2)C1 (stereo partly shown) [compound 48]: 25 to 100%
CCCCC(=O)N1Cc2ccccc2C2(CCN(C3CCN(C(=O)OCC)CC3)CC2)C1 [compound 122]: 25 to 100%
CC(=O)N1Cc2ccccc2C2(CCN(Cc3ccccn3)CC2)C1 [compound 40]: < 25%

Need Emax for each of these compounds.
1. CCOC(=O)N1C2CCC1CC(N1CCC3(CC1)CN(C(=O)c1cc(C)oc1C)Cc1ccccc13)C2 (stereo not shown) [compound 149]
2. CCOC(=O)N1C2CCC1CC(N1CCC3(CC1)CN(C(=O)c1cnn(-c4ccccc4)c1C(F)(F)F)Cc1ccccc13)C2 (stereo not shown) [compound 92]
3. CC(=O)N1Cc2ccccc2C2(CCN(Cc3cc4ccccc4o3)CC2)C1 [compound 217]
4. CS(=O)(=O)N1Cc2ccccc2C2(CCN(C3CC4CCC(C3)N4C(=O)O[C@H]3CCOC3)CC2)C1 (stereo partly shown) [compound 181]
5. CCCC1CCC(N2CCC3(CC2)CN(C(C)=O)Cc2ccccc23)CC1 (stereo not shown) [compound 326]
6. CCOC(=O)N1C2CCC1CC(N1CCC3(CC1)CN(C(=O)c1cc(C)n(C)n1)Cc1ccccc13)C2 (stereo not shown) [compound 219]
7. CCOC(=O)N1CCC(N2CCC3(CC2)CN(C(=O)c2ccno2)Cc2ccccc23)CC1 [compound 46]

Resp:
["< 25%", "25 to 100%", "< 25%", "25 to 100%", "25 to 100%", "25 to 100%", "25 to 100%"]

Hello, I would appreciate it if you could give Emax for each entry below.
1. CCOC(=O)N1CCC(CN2CCC3(CC2)CN(C(=O)C2CCC2)Cc2ccccc23)CC1 [compound 284]
2. CCOC(=O)N1CCC(N2CCC3(CC2)CN(C(=O)C2CCCC2)Cc2ccccc23)CC1 [compound 10]

Resp:
1: 25 to 100%; 2: 25 to 100%

Each compound below has a recorded value; state its Emax.
1. CCOC(=O)N1CCC(CN2CCC3(CC2)CN(C(=O)c2ccno2)Cc2ccccc23)CC1 [compound 214]
2. CCOC(=O)N1CCC(CN2CCC3(CC2)CN(S(=O)(=O)c2c(C)noc2C)Cc2ccccc23)CC1 [compound 155]

Resp:
["25 to 100%", "25 to 100%"]

###

Target: M4 muscarinic receptor (Homo sapiens)
Construct: expressed in transfected cells; host or cells: CHO (M4-CHO)
Sequence (P08173 1-479): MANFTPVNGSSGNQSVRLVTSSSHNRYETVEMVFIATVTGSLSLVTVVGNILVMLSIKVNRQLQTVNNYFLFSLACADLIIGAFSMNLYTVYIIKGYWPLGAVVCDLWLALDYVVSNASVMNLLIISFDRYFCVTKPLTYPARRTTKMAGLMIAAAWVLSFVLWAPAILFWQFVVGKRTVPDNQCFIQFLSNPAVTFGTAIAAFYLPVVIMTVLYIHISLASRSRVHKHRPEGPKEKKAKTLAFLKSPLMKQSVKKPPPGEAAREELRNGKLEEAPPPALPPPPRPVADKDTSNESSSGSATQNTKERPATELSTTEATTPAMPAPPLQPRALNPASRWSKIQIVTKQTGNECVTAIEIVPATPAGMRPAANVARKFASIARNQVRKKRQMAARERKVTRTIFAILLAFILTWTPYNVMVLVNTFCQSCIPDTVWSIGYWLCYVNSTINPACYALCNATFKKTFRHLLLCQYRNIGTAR
Assay: Functional mobilization of intracellular calcium (FLIPR), M4-CHO cells
Format: cell-based
Details: 100% efficacy is the maximum response obtained using Carbachol as a control
For each of the molecules below, state its Emax.

Hello, I would appreciate it if you could give Emax for each entry below.
1. CC(=O)N1Cc2ccccc2C2(CCN(CC3CC4CCC3CC4)CC2)C1 (centres unmarked) [compound 94]
2. CC(=O)N1Cc2ccccc2C2(CCN(C3CC4CCC(C3)N4C(=O)O[C@H]3CCOC3)CC2)C1 (some centres unmarked) [compound 354]
3. CCOC(=O)N1CCC(N2CCC3(CC2)CN(C(=O)NC2CCCCC2)Cc2ccccc23)CC1 [compound 163]

Resp:
25 to 100%
25 to 100%
25 to 100%
